Molecular target: T1, K48-linked diubiquitin (human, UniProt P0CG48 1-76, isopeptide bond between Lys48 of one ubiquitin and the C-terminal Gly of the other)
T1 construct: Boston Biochem
Experiment: SPR Biacore, antigen immobilized
recordedMetric: kon (M⁻¹ s⁻¹)
Respond with the bare value in M⁻¹ s⁻¹.

binder: Fab apu2.02 (Fab, V domains shown) VH: EVQLVESGGGLVQPGGSLRLSCAASGFNIFYGGIHWVRQAPGKGLEWVASIYSYYSYTSYADSVKGRFTISADTSKNTAYLQMNSLRAEDTAVYYCARSYSYYSAMDYWGQGTLVTVSS VL: DIQMTQSPSSLSASVGDRVTITCRASQSVSSAVAWYQQKPGKAPKLLIYSASSLYSGVPSRFSGSRSGTDFTLTISSLQPEDFATYYCQQSSYSSLITFGQGTKVEIK
kon / M⁻¹ s⁻¹: 1.11e+06
//
binder: Fab apu2.09 (Fab, V domains shown) VH: EVQLVESGGGLVQPGGSLRLSCAASGFNISYSSMHWVRQAPGKGLEWVASIYSYYSYTSYADSVKGRFTISADTSKNTAYLQMNSLRAEDTAVYYCARSYSYHVAFDYWGQGTLVTVSS VL: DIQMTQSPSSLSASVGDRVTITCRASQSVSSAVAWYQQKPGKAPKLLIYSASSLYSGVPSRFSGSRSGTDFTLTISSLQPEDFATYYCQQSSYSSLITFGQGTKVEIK
kon / M⁻¹ s⁻¹: 715000
//
binder: Fab apu2.03 (Fab, V domains shown) VH: EVQLVESGGGLVQPGGSLRLSCAASGFNISYSSMHWVRQAPGKGLEWVASIYSYYSYTSYADSVKGRFTISADTSKNTAYLQMNSLRAEDTAVYYCARSYSYSLAFDYWGQGTLVTVSS VL: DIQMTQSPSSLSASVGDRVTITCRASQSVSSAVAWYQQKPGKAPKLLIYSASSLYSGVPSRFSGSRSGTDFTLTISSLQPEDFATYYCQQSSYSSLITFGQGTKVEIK
kon / M⁻¹ s⁻¹: 867000
//
binder: Fab apu2.10 (Fab, V domains shown) VH: EVQLVESGGGLVQPGGSLRLSCAASGFNISYSSMHWVRQAPGKGLEWVASIYSYYSYTSYADSVKGRFTISADTSKNTAYLQMNSLRAEDTAVYYCARSYSYFLAMDYWGQGTLVTVSS VL: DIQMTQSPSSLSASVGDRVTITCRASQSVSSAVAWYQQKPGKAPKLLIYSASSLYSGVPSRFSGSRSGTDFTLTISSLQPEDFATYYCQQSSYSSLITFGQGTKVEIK
kon / M⁻¹ s⁻¹: 3.28e+06

Then this binder:
[in] I am curious: what kon value has been reported for Fab apu2.08 (Fab, V domains shown) VH: EVQLVESGGGLVQPGGSLRLSCAASGFNISYSSMHWVRQAPGKGLEWVASIYSYYSYTSYADSVKGRFTISADTSKNTAYLQMNSLRAEDTAVYYCARSYSYSVGMDYWGQGTLVTVSS VL: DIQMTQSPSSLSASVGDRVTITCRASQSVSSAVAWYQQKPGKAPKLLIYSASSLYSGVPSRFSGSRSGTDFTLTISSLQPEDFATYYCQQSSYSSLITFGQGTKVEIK ?
[out] 1.25e+06
